systemUnderTest: recombinant human secreted phospholipase A2 (Homo sapiens)
Sequence (P14555 21-144): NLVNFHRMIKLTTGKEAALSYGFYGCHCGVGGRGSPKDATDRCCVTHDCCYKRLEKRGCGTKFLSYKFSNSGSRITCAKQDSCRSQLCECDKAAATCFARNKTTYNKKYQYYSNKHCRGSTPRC
assayText: Human Recombinant hnp-sPLA2 Chromogenic Assay
Assay type: biochemical
Experimental: The following chromogenic assay procedure was used to identify and evaluate inhibitors of recombinant human secreted phospholipase A2.The assay described herein has been adapted for high volume screening using 96 well microtiter plates. […] A measured volume of racemic dipheptanoyl thio PC supplied in chloroform at a concentration of 100 mg/ml is taken to dryness and redissolved in 10 millimolar TRITON X-100™ nonionic detergent aqueous solution. […]
observationType: IC50 (nM)

>>> assayresult("CCc1c(C(=O)C(N)=O)c2c(OCC(=O)O)ncnc2n1Cc1ccccc1")
48
>>> assayresult("CCc1c(C(=O)C(N)=O)c2c(OCC(=O)O)nc(SC)nc2n1Cc1ccccc1-c1ccccc1")
9
>>> assayresult("CCc1c(C(=O)C(N)=O)c2c(OCC(=O)O)nc(SC)nc2n1Cc1ccccc1")
19
>>> assayresult("CCc1c(C(=O)C(N)=O)c2c(OCC(=O)O)nc(C)nc2n1Cc1ccccc1")
88

###

systemUnderTest: recombinant human secreted phospholipase A2 (Homo sapiens, UniProt P14555)
Sequence (P14555 21-144): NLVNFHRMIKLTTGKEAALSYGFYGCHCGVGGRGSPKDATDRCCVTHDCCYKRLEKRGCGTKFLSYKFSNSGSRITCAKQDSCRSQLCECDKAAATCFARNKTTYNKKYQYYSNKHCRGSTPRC
assayText: Human Recombinant hnp-sPLA2 Chromogenic Assay
Assay type: biochemical
conditionInfo: chromogenic assay, diheptanoyl thio-PC substrate, pH 7.5, 40° C. for 30 minutes, absorbance at 405 nm; average of n = 3-4; read-out: IC50 (micro-molar) n = 3 − 4 (ave)
Method: The following chromogenic assay procedure was used to identify and evaluate inhibitors of recombinant human secreted phospholipase A2.The assay described herein has been adapted for high volume screening using 96 well microtiter plates. […] A measured volume of racemic dipheptanoyl thio PC supplied in chloroform at a concentration of 100 mg/ml is taken to dryness and redissolved in 10 millimolar TRITON X-100™ nonionic detergent aqueous solution. […]
pIC50: −log10 of the molar value.
Each entry below carries its reported pIC50.
observationType: pIC50

>>> assayresult("CCc1c(C(=O)C(N)=O)c2c(OCC(=O)O)ncnc2n1Cc1cccc(C(F)(F)F)c1")
6.91
>>> assayresult("CCc1c(C(=O)C(N)=O)c2c(OCC(=O)OC)ncnc2n1Cc1ccccc1")
5.26
>>> assayresult("CCc1c(C(=O)C(N)=O)c2c(OCC(=O)O)ncnc2n1Cc1ccccc1-c1ccccc1")
6.94
>>> assayresult("CCc1c(C(=O)C(N)=O)c2c(OCC(=O)OC)nc(C)nc2n1Cc1ccccc1")
5.33

###

Each entry below carries its reported pIC50.
systemUnderTest: recombinant human secreted phospholipase A2 (Homo sapiens)
assayText: Human Recombinant hnp-sPLA2 Chromogenic Assay
Type: biochemical
pIC50: −log10 of the molar value.
observationType: pIC50

>>> assayresult("CCc1c(C(=O)C(N)=O)c2c(OCC(=O)O)ncnc2n1Cc1cccc(F)c1 [—H|—H|m-F-phenyl]")
7.01
>>> assayresult("CCc1c(C(=O)C(N)=O)c2c(OCC(=O)O)nc(SC)nc2n1Cc1cccc(C(F)(F)F)c1 [—H|—S-methyl|m-CF3-phenyl]")
7.89
>>> assayresult("CCc1c(C(=O)C(N)=O)c2c(OCC(=O)O)ncnc2n1Cc1cccc(Cl)c1 [—H|—H|m-Cl-phenyl]")
7.04
>>> assayresult("CCc1c(C(=O)C(N)=O)c2c(OCC(=O)O)nc(SC)nc2n1Cc1cccc(Cl)c1 [—H|—S-methyl|m-Cl-phenyl]")
7.72
>>> assayresult("CCc1c(C(=O)C(N)=O)c2c(OCC(=O)O)nc(Sc3ccccc3)nc2n1Cc1ccccc1 [—H|—S-phenyl|phenyl]")
7.96
>>> assayresult("CCc1c(C(=O)C(N)=O)c2c(OCC(=O)O)nc(OC)nc2n1Cc1ccccc1 [—H|—O—CH3|phenyl]")
7.34
>>> assayresult("CCc1c(C(=O)C(N)=O)c2c(OCC(=O)O)nc(SC)nc2n1Cc1cccc(F)c1 [—H|—S-methyl|m-F-phenyl]")
7.80
